Test system: Male beagle dogs
assay: canine telemetry protocol, blood pressure reduction efficacy
Assay type: in vivo
experimental.parameters: telemetered male beagle dogs, 3 mg/kg, oral gavage, 1-6 h
The entries below come with measured ΔPP (pulse pressure), change from baseline, 1-6 h values attached.
endpoint: ΔPP (pulse pressure), change from baseline, 1-6 h (mm Hg)

INSERT INTO results (molecule, result_number) VALUES
  ('CCCCO/N=[N+](\[O-])N1CCC(C(=O)Oc2c(C)ncc3c2CO[C@H]3c2ccc(Cl)cc2)CC1', '−12'),
  ('Cc1ncc2c(c1OC(=O)[C@@H]1CCCN1[N+]([O-])=NOCC(C)C)CO[C@H]2c1ccc(Cl)cc1 (stereo in doubt)', '−3.6'),
  ('Cc1ncc2c(c1OC(=O)[C@@H]1CCCN1[N+]([O-])=NOC1CCCCC1)CO[C@H]2c1ccc(Cl)cc1 (stereo in doubt)', '−6.9'),
  ('CCCCON=[N+]([O-])N1CCC[C@H]1C(=O)Oc1c(C)ncc2c1CO[C@H]2c1ccc(Cl)cc1 (stereo in doubt)', '−14.0'),
  ('CC[C@H](C)CON=[N+]([O-])N1CCC[C@H]1C(=O)Oc1c(C)ncc2c1CO[C@H]2c1ccc(Cl)cc1 (stereo in doubt)', 0.6),
  ('CCCC(C)ON=[N+]([O-])N1CCC[C@H]1C(=O)Oc1c(C)ncc2c1CO[C@H]2c1ccc(Cl)cc1 (stereo in doubt)', '−10.6');
